Target: T1, cynomolgus monkey C2 (cynomolgus monkey, UniProt G8F3W0 21-752)
T1 sequence: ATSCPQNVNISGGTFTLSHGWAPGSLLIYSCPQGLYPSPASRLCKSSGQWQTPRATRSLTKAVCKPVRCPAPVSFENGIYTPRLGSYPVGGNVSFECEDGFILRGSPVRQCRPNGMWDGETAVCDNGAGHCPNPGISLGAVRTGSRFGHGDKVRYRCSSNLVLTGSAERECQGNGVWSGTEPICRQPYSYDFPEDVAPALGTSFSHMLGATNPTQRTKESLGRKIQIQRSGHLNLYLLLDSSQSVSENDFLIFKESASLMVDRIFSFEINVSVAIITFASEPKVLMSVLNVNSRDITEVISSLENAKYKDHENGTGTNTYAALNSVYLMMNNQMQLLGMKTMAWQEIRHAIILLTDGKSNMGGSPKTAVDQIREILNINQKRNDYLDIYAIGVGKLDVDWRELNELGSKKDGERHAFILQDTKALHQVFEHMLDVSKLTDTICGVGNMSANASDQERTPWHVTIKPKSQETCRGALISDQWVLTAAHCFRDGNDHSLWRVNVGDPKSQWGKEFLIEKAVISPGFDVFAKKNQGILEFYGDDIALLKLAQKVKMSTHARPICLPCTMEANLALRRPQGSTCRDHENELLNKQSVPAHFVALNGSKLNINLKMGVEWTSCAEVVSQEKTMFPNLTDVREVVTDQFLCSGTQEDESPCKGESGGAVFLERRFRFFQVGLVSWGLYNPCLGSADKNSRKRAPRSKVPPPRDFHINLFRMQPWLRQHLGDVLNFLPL
Experiment: cell-based or functional assay
Examples of binders with documented IC50, inhibition of cyno classical pathway (hemolysis assay) follow.
Respond numerically; units are nM and should not be typed.

BINDER | RECORDED_RESULT
RF16-242 (antibody, V domains shown) VH: EVQLLQSGAEVKKPGESLKISCKGSGYSFTSYWIGWVRQMPGKGLEWMGIIYPGDSDTRYSPSFQGQVTISADKSISTAYLQWSSLKASDTAMYYCARRGHYGDYFDYWGQGTLVTVSS VL: SYELTQPPSVSVSPGQTARITCSGDALPKKYAYWYHQKSGQAPVLVIYEDRRRPSEIPERFSGSSSGTMATLTITGAQVEDEGVYFCYSRDRAGNQRVFGGGTQLTVLG | 642
RF16-191 (antibody, V domains shown, Human antibody from a phage display library) VH: EVQLLESGGGLVQPGGSLRLSCAASGFTFSKYWMGWVRQATGKGLEWVSSIYSSGGWTYYADSVKGRFTISRDNSKNTLYLQMNSLRAEDTAVYYCARRPRSFSGSYYRAFDIWGQGTMVTVSS VL: DIQMTQSPSSLSASVGDRVTITCRASQSITDYLNWYQQRPGKAPKLLIYAASSLQSGVPSRFSGSGSGTDFTLTISGLQPEDFATYYCQQSYSSSITFGQGTRLDLKR | 188

Continue with the binder presented below.
Query: What value of IC50, inhibition of cyno classical pathway (hemolysis assay) has been recorded for this entry: RF16-214 (antibody, V domains shown) VH: EVQLLESGGGLVQPGGSLRLSCAASGFTFSWYQMMWVRQAPGKGLEWVSRIYPSGGGTAYADSVKGRFTISRDNSKNTLYLQMNSLRAEDTAVYYCARDAGYGDNWGQGTLVTVSS VL: QSALTQPPSVSVSPGQTASITCSGDKLGEKYASWYQQKAGQSPVMVIYQDRKRPSGIPERFSGSNSGNTATLTISGTQAMDEADYYCQAWDTRAVVFGGGTKLTVLG
Response: 630

Measured values drawn from patent US20220332804A1 for this set.
